target-or-test-system: T1, human IGSF11 (VSIG3) on cells (human, UniProt Q5DX21 23-431)
T1 sequence: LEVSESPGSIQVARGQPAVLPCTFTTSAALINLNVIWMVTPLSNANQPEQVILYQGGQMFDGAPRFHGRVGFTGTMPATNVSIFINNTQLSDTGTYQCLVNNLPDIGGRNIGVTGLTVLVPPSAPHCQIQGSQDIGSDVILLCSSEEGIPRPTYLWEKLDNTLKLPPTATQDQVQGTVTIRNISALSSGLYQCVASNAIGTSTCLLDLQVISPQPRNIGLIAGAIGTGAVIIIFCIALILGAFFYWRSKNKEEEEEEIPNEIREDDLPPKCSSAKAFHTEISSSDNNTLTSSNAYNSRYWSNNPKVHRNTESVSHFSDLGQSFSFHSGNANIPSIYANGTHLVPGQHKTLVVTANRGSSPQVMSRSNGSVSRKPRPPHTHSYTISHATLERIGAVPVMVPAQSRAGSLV
assay-method-text: FACS, DMS 273 cells
pEC50: −log10 of the molar value.
measured-endpoint: pEC50

INSERT INTO assay_data (binder, measured_endpoint, value_observed) VALUES
  ('A-013 (IgG1 format) (antibody, V domains shown, human IgG1 format) VH: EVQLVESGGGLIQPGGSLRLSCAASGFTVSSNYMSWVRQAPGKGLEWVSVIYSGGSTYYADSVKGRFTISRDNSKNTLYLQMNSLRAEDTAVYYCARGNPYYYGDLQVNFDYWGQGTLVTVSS VL: QAVVTQEPSLTVSPGGTVTLTCASSTGAVTSAYYPNWFQQKPGQAPRALIYSTSNKHSWTPARFSGSLLGGKAALTLSGVQPEDEADYYCLLYYGGAWVFGGGTKLTVL', 'pEC50', '< 7.30'),
  ('B-002 (chain-swapped IgG1) (antibody, V domains shown, human IgG1 format; also called B2) VH: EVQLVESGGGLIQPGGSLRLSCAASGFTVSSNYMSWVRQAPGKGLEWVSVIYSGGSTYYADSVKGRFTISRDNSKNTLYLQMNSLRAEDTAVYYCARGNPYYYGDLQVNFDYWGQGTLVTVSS VL: QAVVTQEPSLTVSPGGTVTLTCASSTGAVTSGYYPNWFQQKPGQAPRALIYSTSNKHSWTPARFSGSLLGGKAALTLSGVQPEDEAEYYCLLYYGGAWVFGGGTKLTVL', 'pEC50', '< 7.30'),
  ('A-022 (IgG1 format) (antibody, V domains shown, human IgG1 format) VH: EVQLLESGPGLVKPSQTLSLTCTVSGGSISSGGYYWSWIRQHPGKGLEWIGYIYYSGSTYYNPSLKSRVTISVDTSKNQFSLKLSSVTAADTAVYYCARASRSTDYYFDYWGQGTLVTVSS VL: QPGLTQPPSMSYGLGQTATLTCTGNRNNIGDQGAAWLQQHQGHPPKLLSYRNNNGPSGISERLSASRSGNTASLTISGLQPEDEADYYCSAWDSSLRAWVFGGGTKLTVL', 'pEC50', '7.30 to 8.00');
